tested on: TO-N3 (biotin conjugate); experiment: pull-down binding Z-score (relative to library population); higher = stronger binding; conditions: RNA library: Library-2
Lab note: anything with pull-down binding Z-score at or over 0.06 counts as 1.0; the rest go in 0.0.

Decide: is the reported value of pull-down binding Z-score for GACCGUUGGCAUCUUAAUUACCCUC [hsa-mir-532] equal to or greater than 0.06?
0.0

// inclusive: pull-down binding Z-score at least 0.06? input: CAUGUCAUGUCUAAACAUACUGACUUUUCAAGUG [SHAPE_invitro_SARS-CoV-2_Motif_169]
0.0

Hi team, for AUUAUGUGUACCUUCCUUACCCAGAUCCAUCAAGAAUCCUAGGGGCCGGCUGUUUUGUAGAUGAUAUCGUAAAAACAGAUGGUACACUUAUGAU [DMSMaPseq_invitro_SARS-CoV-2_Multi_47_ComplexLevel_1] , is the recorded pull-down binding Z-score at or above 0.06?
0.0

Hello, I need to know if GGGACACAUUUGAGCCAAAUGUCCC [hsa-mir-610] has measured pull-down binding Z-score not below 0.06. Thanks!
0.0

Decide: is the reported value of pull-down binding Z-score for CGGAUUCUGAAAGAAGAAUCCG [IAV_invivo_NS1_NEP_8_Motif_5+IAV_invivo_NS1_NEP_8_Motif_5] equal to or greater than 0.06?
1.0

hey, is pull-down binding Z-score for this one >= 0.06? GGUCCAGCAACAGCUCAAAUGGCC [IAV_invivo_PB1_2_Motif_29+IAV_invivo_PB1_2_Motif_29]
0.0

Exam item: decide whether the reported pull-down binding Z-score for AGUUGGACACUCCAUGUGGUAGAGUGUC [hsa-mir-223] is at least 0.06.
1.0

Kindly determine if pull-down binding Z-score recorded for `GUUGAAGAAGUUACAAC` is above or exactly 0.06.
1.0

hey, is pull-down binding Z-score for this one >= 0.06? GGCUGGCCCCCUGCUUCGUGCCCAUCC [hsa-mir-937]
1.0

Check if pull-down binding Z-score >= 0.06 (inclusive). Item: UGCCCUGGGGCCGUCCCUGCGCA [hsa-mir-1909]
1.0

Please tell me: is the sequence GGGAAGGAGAAGGGACGCUUCCC [hsa-mir-3127] at or over 0.06 in terms of pull-down binding Z-score?
1.0

Given the entry GUGAGCGCAGGUCUUUGGCAC [hsa-mir-4450] , answer whether its pull-down binding Z-score meets or surpasses 0.06.
1.0

Form field: pull-down binding Z-score at least 0.06? Entry: ACUUUCUGGUGCCAGAAUGAAAGU [hsa-mir-512-2_512-1]
0.0

Answer whether pull-down binding Z-score of GCGCAGCCAGAAACUGGCGGCGC [mismatch-AG] is greater than or equal to 0.06.
0.0

Is the recorded value of pull-down binding Z-score equal to or greater than 0.06 for this sequence? UAGGCCCACUGCUCAGUGGAGC [hsa-mir-7847]
1.0

Say whether `GUGGUGAGACACUUGGUGUCCUUGUCCCUCAUGUGGGCGAAAUACCAGUGGCUUACCGC` shows pull-down binding Z-score of 0.06 or more.
1.0

Threshold query (pull-down binding Z-score >= 0.06) on UUGUUCUGAUGUACUACGACAA [hsa-mir-7-3]
0.0

Is the recorded value of pull-down binding Z-score equal to or greater than 0.06 for this sequence? CCCAGCCUUCCAGAGUUGGUGCCAGG [hsa-mir-4476]
1.0

Check this sequence for pull-down binding Z-score at or above 0.06: GGCUGUGAGCUCUAGCAAUGCCC [hsa-mir-146b]
1.0

Test whether the sequence GACAUCUGGGCCAACUCUGAUCUC [hsa-mir-6515] records pull-down binding Z-score of 0.06 or higher.
1.0

Is pull-down binding Z-score at least 0.06? Consider UGGGUUUGAGUCUGAAUCAACUCA [hsa-mir-181b-2]
0.0
